Assay: BSK_SAg_Proliferation: Cell Proliferation Assessment in the BioMAP Diversity Plus: SAg Assay (AID 2283095);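 also: relative cell number as total protein by SRB absorbance in sub-confluent culture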
Details: primary human HUVEC with PBMC
Activity calls are given as the source filed them. The calls were made as follows: active = hit-call score of the fitted dose curve at least 0.9, where 1 is the maximum; inactive = score below 0.9.
Possible outcomes: active, inactive

compound	discreteLabel
FC(F)(F)C(F)(F)C(F)(F)C(F)(F)C(F)(F)C(F)(F)C(F)(F)C(F)(F)CCS	inactive
C=CC/C=C/C/C=C/C/C=C/C	inactive
FC(F)(F)C(F)(F)C(F)(F)N(C(F)(F)C(F)(F)C(F)(F)F)C(F)(F)C(F)(F)C(F)(F)F	inactive
Oc1ccc(Nc2ccccc2)cc1	active
OCC(F)(F)C(F)(F)C(F)(F)C(F)F	inactive
CCCCCCCCCCCCCCCC[N+](C)(C)Cc1ccccc1	active
O=S(=O)(OCC(F)F)C(F)(F)F	inactive
CCCCCCC(C)OC(=O)CCCCC(=O)OC(C)CCCCCC (centres undefined)	inactive
O=C(O)C(F)(OC(F)(F)C(F)(OC(F)(F)C(F)(OC(F)(F)C(F)(F)C(F)(F)F)C(F)(F)F)C(F)(F)F)C(F)(F)F (centres undefined)	inactive
OCCCC(F)(F)C(F)(F)C(F)(F)F	inactive
FC1CC(F)(F)C(F)(F)C1(F)F (centres undefined)	inactive
C=C(C)C(=O)OCC(F)(F)C(F)(F)C(F)(F)F	inactive
CCCCOCCOCCOC(=O)CCCCC(=O)OCCOCCOCCCC	inactive
O=C(O)C(F)(F)C(F)(F)C(F)(F)C(F)(F)C(F)(F)C(F)(F)C(F)(F)C(F)(F)C(F)(F)C(F)(F)C(F)(F)C(F)(F)F	inactive
C#C[C@]1(O)CC[C@H]2[C@@H]3CCc4cc(OC)ccc4[C@H]3CC[C@@]21C	active
COC(=O)CCC(F)(F)C(F)(F)C(F)(F)C(F)(F)F	inactive
Cc1ccc(S(=O)(=O)OCC(F)(F)C(F)(F)C(F)(F)C(F)(F)C(F)(F)C(F)F)cc1	inactive
O[Si](c1ccccc1)(c1ccccc1)c1ccccc1	active
O=C(O)C(F)(F)C(F)(F)C(F)(F)C(F)(F)C(F)(F)C(F)(F)C(F)(F)C(F)(F)C(F)(F)C(F)(F)C(F)(F)C(F)(F)C(F)(F)F	inactive
C=CC(F)(F)C(F)(F)C(F)(F)C(F)(F)C(F)(F)C(F)(F)C(F)(F)C(F)(F)C=C	inactive
CC(CCl)OP(=O)(OC(C)CCl)OC(C)CCl (centres undefined)	inactive
C=C(C)C(=O)OCCC(F)(F)C(F)(F)C(F)(F)C(F)(F)C(F)(C(F)(F)F)C(F)(F)F	inactive
CCCCCCCOC(=O)c1ccccc1C(=O)OCCCCCCC	inactive
OCC(F)(F)C(F)(F)C(F)(F)C(F)(F)C(F)(F)C(F)(F)F	inactive

###

Assay: ATG_BRE_CIS: Attagene CIS-FACTORIAL HepG2 Assay for human Bone Morphogenetic Protein (BMP) Response Element (BRE) (AID 2282933)
Details: HepG2 BMP response element reporter, Attagene transcription factor profiling; actives raise or lower the signal
Calls of active or inactive are those of the source. The calls were made as follows: active = hit-call score of the fitted dose curve at least 0.9, where 1 is the maximum; inactive = score below 0.9.
measurementLabel: outcome

1. C(=C(c1ccccc1)c1ccccc1)c1ccccc1 inactive
2. O=C(O)C=C(C(F)(F)F)C(F)(F)F inactive
3. CCO[Si](CCC(F)(F)C(F)(F)C(F)(F)C(F)(F)C(F)(F)C(F)(F)F)(OCC)OCC inactive

###

Read-out: Low-density lipoprotein receptor (LDLR), LDLR (gene 3949)
Experiment: BSK_CASM3C_LDLR: BioMAP Diversity Plus: CASM3C Assay for Low-density lipoprotein receptor (LDLR) Biomarker Activity (AID 2283045);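 also: LDLR protein level on the cell surface quantified by ELISA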
Details: primary human coronary artery smooth muscle cells; actives raise or lower the signal
The source made the active and inactive calls. The calls were made as follows: active = hit-call score of the fitted dose curve at least 0.9, where 1 is the maximum; inactive = score below 0.9.
measurementLabel: AC50

1. O=S(=O)(OCC(F)F)C(F)(F)F inactive
2. CCCCOCCOCCOC(=O)CCCCC(=O)OCCOCCOCCCC inactive
3. CCN(CC)c1ccc2c(C)cc(=O)oc2c1 31.3 µM (active)
4. CO[Si](OC)(c1ccccc1)c1ccccc1 30.8 µM (active)
5. O[Si](c1ccccc1)(c1ccccc1)c1ccccc1 inactive

###

Experiment: ATG_E_Box_CIS: Attagene CIS-FACTORIAL HepG2 Assay for human Enhancer Box (E-box) (AID 2282936)
Conditions: HepG2 E-box cis-reporter transcription, actives raise or lower the signal
Activity calls are given as the source filed them. How the source made its calls: active means hit-call score of the fitted dose curve at least 0.9, where 1 is the maximum; inactive means score below 0.9.
Possible outcomes: active, inactive

compound	discreteLabel
COC(OC(C)=O)c1ccccc1 (configuration not stated)	inactive
O=C(O)C(F)(F)C(F)(F)C(F)(F)F	inactive
FC(F)(F)C(F)(F)CNCC(F)(F)C(F)(F)F	inactive
C1COCCN1	inactive
O=C(O)C(F)(F)C(F)(F)C(F)(F)C(F)(F)C(F)(F)C(F)(F)C(F)(F)C(F)(F)C(F)(F)C(F)(F)C(F)(F)C(F)(F)C(F)(F)F	inactive
CC(C)(C)C(=O)CC(=O)C(F)(F)C(F)(F)C(F)(F)F	inactive
O=C(O)C(F)(F)C(F)(F)C(F)(F)C(F)(F)C(F)(F)C(F)(F)C(F)(F)C(F)(F)Cl	inactive
C=C(C)C(=O)OCCC(F)(F)C(F)(F)C(F)(F)C(F)(F)C(F)(C(F)(F)F)C(F)(F)F	inactive
FC(F)(F)C(F)(F)C(F)(F)CI	inactive
OCC(F)(F)C(F)(F)C(F)(F)C(F)(F)C(F)(F)C(F)(F)F	active
CCc1ccc(C(c2ccc(CC)cc2)C(Cl)Cl)cc1	inactive
CCN(CC)c1ccc2c(C)cc(=O)oc2c1	inactive

###

Read-out: Monocyte Chemoattractant Protein-1 (MCP1), CCL2 (gene 6347)
Assay: BSK_SAg_MCP1: BioMAP Diversity Plus: SAg Assay for Monocyte Chemoattractant Protein-1 (MCP1) Biomarker Activity (AID 2283090)
Conditions: primary human HUVEC with PBMC; actives raise or lower the signal
Active and inactive are the calls of the source. How the source made its calls: active means hit-call score of the fitted dose curve at least 0.9, where 1 is the maximum; inactive means score below 0.9.
Possible outcomes: true for active, false for inactive

1. Oc1ccc(Nc2ccccc2)cc1 true
2. O=S(=O)(OCCOC(F)(F)F)C(F)(F)F false
3. OCC(F)(F)C(F)(F)C(F)(F)C(F)(F)C(F)(F)C(F)F false
4. FC(F)(F)C(F)(F)C(F)(F)C(F)(F)C(F)(F)C(F)(F)C(F)(F)I false
5. O=S(=O)(OCC(F)F)C(F)(F)F false
6. O=C(O)C(F)(F)C(F)(F)C(F)(F)F false
7. C=CC(F)(F)C(F)(F)C(F)(F)C(F)(F)C(F)(F)C(F)(F)C(F)(F)C(F)(F)C=C false
8. OCC(F)(F)C(F)(F)C(F)(F)C(F)(F)C(F)(F)C(F)(F)F false
9. C=C(C)C(=O)OCC(F)(F)C(F)(F)C(F)(F)C(F)(F)C(F)(F)C(F)(F)C(F)(F)F false

###

Test: Tanguay_ZF_120hpf_ANY: Oregon State University Tanguay Lab 120 Hour Post-fertilization zebrafish Assay for Any Mortality and Malformation (AID 2284404)
Activity calls are given as the source filed them. How the source made its calls: active means hit-call score of the fitted dose curve at least 0.9, where 1 is the maximum; inactive means score below 0.9.
Possible outcomes: active, inactive

1) C=C(C)C(=O)OCC(F)(F)C(F)(F)C(F)(F)C(F)(F)C(F)(F)C(F)(F)C(F)(F)F inactive
2) O=C(O)C(F)(F)C(F)(F)C(F)(F)C(F)(F)C(F)(F)C(F)(F)C(F)(F)C(F)(F)C(F)(F)C(F)(F)C(F)(F)C(F)(F)F active
3) O=C(O)C(F)(F)C(F)(F)F inactive

###

Target: Aryl hydrocarbon receptor (Homo sapiens) (UniProt P35869)
Sequence (P35869 whole entry, looked up): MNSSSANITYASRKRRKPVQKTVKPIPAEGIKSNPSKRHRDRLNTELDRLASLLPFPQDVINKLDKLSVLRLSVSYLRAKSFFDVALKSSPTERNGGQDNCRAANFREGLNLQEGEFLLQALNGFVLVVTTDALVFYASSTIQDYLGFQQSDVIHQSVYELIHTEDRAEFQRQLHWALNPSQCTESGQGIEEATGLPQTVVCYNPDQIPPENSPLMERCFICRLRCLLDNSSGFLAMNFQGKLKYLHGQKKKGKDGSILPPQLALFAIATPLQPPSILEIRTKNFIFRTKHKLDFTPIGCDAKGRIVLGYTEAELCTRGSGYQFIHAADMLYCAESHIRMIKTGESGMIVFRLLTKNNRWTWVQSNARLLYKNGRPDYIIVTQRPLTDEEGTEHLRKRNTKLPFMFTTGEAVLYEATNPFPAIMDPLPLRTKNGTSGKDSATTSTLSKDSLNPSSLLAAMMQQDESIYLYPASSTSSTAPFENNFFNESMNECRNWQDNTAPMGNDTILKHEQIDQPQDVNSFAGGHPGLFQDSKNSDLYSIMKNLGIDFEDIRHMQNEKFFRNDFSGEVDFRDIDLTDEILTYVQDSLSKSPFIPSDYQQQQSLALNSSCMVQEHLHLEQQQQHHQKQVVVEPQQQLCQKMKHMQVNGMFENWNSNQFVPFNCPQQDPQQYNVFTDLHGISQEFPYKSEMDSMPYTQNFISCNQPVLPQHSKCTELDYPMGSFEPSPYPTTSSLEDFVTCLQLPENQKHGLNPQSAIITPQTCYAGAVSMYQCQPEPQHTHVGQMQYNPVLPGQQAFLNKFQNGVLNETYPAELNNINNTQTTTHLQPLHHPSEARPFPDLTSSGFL
Assay: ATG_Ahr_CIS: Attagene CIS-FACTORIAL HepG2 Assay for human Aryl Hydrocarbon Receptor (Ahr) (AID 2282930)
Details: HepG2 AhR cis-factorial reporter transcription; actives raise or lower the signal
The source made the active and inactive calls. How the source made its calls: active means hit-call score of the fitted dose curve at least 0.9, where 1 is the maximum; inactive means score below 0.9.
Possible outcomes: TRUE (active), FALSE (inactive)

compound	discreteLabel
CCc1c(Br)c(Br)c(Br)c(Br)c1Br	FALSE
FC(F)(F)C(F)(F)C(F)(F)C(F)(F)C(F)(F)C(F)(F)CC1CO1 (configuration not stated)	FALSE
O=C(OCCOCCOCCOC(=O)c1ccccc1)c1ccccc1	FALSE
CCN(Cc1cccc(S(=O)(=O)O)c1)c1ccc(C(=C2C=CC(=[N+](CC)Cc3cccc(S(=O)(=O)O)c3)C=C2)c2ccc(O)cc2S(=O)(=O)[O-])cc1	TRUE
c1ccc(-c2ccccc2-c2ccccc2)cc1	FALSE
FC(F)(F)C(F)(F)C(F)(F)C(F)(F)C(F)(F)CCI	TRUE
c1ccc(B(c2ccccc2)c2ccccc2)cc1	TRUE

###

Target: Nuclear receptor subfamily 1 group I member 2 (Homo sapiens)
Test: ATG_PXR_TRANS: Attagene TRANS-FACTORIAL HepG2 Assay for human Pregnane X Receptor (PXR) (AID 2283008)
Results filed as inconclusive are left out. Activity calls are given as the source filed them. The calls were made as follows: active = hit-call score of the fitted dose curve at least 0.9, where 1 is the maximum; inconclusive = response in the unintended direction; inactive = score below 0.9.
Possible outcomes: active, inactive

1. O=C(O)C(F)(F)C(F)(F)C(F)(F)C(F)(F)F inactive
2. CC(=O)Nc1ccc(N=Nc2cc(C)ccc2O)cc1 active
3. OCCCC(F)(F)C(F)(F)C(F)(F)C(F)(F)C(F)(F)C(F)(F)C(F)(F)F inactive
4. CC/C=C\CCOC(=O)c1ccccc1 inactive
5. CCO[Si](CCC(F)(F)C(F)(F)C(F)(F)C(F)(F)C(F)(F)C(F)(F)F)(OCC)OCC inactive
6. O=C(O)C(F)(F)C(F)(F)C(F)(F)C(F)(F)C(F)(F)C(F)(F)C(F)(F)C(F)(F)C(F)(F)C(F)F active
7. CC(C)OC(=O)c1ccccc1C(=O)OC(C)C active
8. O=S(=O)(OCC(F)F)C(F)(F)F inactive
